Reported IC50 for target or system Estrogen receptor (Homo sapiens), by entry.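 Further: potency for inhibiting coactivator peptide recruitment to the receptor.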
Activity calls are given as the source filed them.

molecule	IC50
CC(NC(=O)CCSc1nc(-c2ccc3c(c2)OCO3)cc(C(F)(F)F)n1)c1ccccc1 (centres undefined)	> 50 µM (not active)
C=CCNc1nc(-c2cccc(OC)c2O)nc2ccccc12	> 50 µM (not active)
O=S(=O)(Nc1nccs1)c1cc(Cl)ccc1Cl	> 50 µM (not active)
COC(=O)c1ccc2c(=O)n(CCCCCC(=O)NCc3ccc4c(c3)OCO4)c(=O)[nH]c2c1	14.8 µM (active)

* * *

molecular target: Fatty acid synthase (Homo sapiens, UniProt P49327); test: inhibition of human FAS-TE enzyme activity – biochemical, endpoint fluorescence intensity, uHTS hits, dose response (AID 624327); assay type: functional;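 further: fluorescence from hydrolysis of an O-methyl fluorescein acyl ester substrate by the enzyme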
Sequence (P49327 whole entry): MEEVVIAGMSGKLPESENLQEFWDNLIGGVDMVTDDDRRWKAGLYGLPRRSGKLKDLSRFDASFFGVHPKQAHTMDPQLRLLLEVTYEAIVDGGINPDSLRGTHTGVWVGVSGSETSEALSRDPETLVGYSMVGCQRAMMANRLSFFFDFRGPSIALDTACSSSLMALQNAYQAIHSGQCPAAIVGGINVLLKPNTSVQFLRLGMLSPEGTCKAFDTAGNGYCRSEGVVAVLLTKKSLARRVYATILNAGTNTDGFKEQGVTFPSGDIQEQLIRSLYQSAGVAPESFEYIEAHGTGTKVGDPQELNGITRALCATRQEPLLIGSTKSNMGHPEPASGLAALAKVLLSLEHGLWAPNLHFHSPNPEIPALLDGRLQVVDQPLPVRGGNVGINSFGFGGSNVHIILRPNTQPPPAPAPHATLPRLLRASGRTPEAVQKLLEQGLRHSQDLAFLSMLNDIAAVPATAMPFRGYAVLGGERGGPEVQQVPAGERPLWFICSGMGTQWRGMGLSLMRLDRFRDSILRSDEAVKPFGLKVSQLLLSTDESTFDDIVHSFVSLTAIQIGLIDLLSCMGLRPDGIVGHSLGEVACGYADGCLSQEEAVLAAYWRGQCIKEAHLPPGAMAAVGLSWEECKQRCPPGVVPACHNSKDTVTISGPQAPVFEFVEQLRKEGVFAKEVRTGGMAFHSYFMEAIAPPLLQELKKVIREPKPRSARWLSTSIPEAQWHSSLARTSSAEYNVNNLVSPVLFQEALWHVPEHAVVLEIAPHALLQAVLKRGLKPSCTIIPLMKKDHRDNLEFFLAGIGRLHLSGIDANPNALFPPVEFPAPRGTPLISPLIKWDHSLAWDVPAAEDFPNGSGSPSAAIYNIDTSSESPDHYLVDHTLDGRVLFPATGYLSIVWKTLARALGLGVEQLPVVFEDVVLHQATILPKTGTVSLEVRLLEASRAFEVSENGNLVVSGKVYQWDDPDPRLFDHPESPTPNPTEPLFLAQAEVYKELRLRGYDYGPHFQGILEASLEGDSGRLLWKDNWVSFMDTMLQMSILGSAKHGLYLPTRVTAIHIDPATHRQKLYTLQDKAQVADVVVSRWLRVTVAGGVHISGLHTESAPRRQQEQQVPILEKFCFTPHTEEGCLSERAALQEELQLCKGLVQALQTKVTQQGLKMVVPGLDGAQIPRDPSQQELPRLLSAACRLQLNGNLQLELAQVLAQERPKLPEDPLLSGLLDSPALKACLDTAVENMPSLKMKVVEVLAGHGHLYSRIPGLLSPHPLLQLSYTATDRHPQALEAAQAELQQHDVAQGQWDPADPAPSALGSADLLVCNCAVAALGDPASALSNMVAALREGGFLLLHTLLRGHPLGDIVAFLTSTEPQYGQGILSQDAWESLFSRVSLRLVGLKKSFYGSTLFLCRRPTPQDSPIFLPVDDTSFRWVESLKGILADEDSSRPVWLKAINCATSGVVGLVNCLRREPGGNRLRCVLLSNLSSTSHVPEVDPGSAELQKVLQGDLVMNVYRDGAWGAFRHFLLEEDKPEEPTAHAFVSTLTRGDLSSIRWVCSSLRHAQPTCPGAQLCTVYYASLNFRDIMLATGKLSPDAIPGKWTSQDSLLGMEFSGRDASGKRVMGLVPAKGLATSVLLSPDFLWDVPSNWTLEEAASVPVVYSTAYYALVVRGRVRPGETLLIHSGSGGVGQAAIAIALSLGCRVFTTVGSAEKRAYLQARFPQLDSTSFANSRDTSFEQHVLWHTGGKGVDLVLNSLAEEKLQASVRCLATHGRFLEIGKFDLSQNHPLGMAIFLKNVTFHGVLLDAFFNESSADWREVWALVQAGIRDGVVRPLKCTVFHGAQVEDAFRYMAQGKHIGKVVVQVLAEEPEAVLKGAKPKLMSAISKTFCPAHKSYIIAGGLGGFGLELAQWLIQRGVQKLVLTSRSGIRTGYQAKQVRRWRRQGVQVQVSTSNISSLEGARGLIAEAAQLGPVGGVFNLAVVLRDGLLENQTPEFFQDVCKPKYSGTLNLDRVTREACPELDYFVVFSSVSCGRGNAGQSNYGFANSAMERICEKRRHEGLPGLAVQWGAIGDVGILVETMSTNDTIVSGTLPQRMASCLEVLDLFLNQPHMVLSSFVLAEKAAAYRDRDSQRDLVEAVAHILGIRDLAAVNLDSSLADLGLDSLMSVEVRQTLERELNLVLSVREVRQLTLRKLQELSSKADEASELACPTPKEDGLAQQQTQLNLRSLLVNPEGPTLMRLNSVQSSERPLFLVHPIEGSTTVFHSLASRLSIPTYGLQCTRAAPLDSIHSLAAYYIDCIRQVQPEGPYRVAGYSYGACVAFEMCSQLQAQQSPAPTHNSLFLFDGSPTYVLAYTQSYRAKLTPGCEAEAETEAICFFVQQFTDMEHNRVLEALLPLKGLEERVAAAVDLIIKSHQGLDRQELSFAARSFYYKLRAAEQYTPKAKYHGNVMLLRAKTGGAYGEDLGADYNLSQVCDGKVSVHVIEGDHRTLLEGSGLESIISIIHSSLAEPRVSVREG
Active and inactive are the calls of the source.

molecule	IC50
CC1(C)CC(=O)C=C(c2ccc(COC(=O)c3ccccc3)cc2)C1=O	7.19 µM (active)
O=S(=O)(Nc1cccc(-n2cnnn2)c1)c1cnc(Cl)c(Cl)c1	5.37 µM (active)
CC(C)(C)C(=O)Nc1nc(C2CCCN2S(=O)(=O)c2ccc(Cl)cc2)cs1 (configuration not stated)	9.08 µM (active)
O=C(Nc1nnc(-c2ccc(F)cc2)o1)c1cccc([N+](=O)[O-])c1	11.9 µM (active)
O=C(NNS(=O)(=O)c1ccc([N+](=O)[O-])cc1)c1cnn(-c2ccccc2)c1-n1cccc1	4.5 µM (active)
O=C(COC(=O)c1cc([N+](=O)[O-])ccc1N1CCOCC1)NCc1ccc(Cl)cc1Cl	0.912 µM (active)
Cc1ccc(C(=O)NCCNc2ncc(C(F)(F)F)cc2Cl)cc1[N+](=O)[O-]	8.99 µM (active)
